target: Adenosine receptor A2a (Homo sapiens); further: assay procedure not described here
Sequence (P29274 whole entry): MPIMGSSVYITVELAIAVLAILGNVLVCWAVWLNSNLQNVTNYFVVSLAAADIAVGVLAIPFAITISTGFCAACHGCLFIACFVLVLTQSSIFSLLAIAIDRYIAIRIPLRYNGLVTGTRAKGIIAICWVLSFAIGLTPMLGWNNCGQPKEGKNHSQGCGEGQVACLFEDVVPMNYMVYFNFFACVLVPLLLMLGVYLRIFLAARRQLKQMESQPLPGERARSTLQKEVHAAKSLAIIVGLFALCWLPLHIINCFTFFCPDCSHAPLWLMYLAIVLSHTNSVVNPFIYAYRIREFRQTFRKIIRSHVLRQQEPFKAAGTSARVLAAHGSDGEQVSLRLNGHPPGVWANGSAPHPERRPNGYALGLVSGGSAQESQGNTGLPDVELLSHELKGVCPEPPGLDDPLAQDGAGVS
Measured AC50, listed per entry for reference.

{"columns": ["Compound", "AC50"],
 "data": [
  ["CCOC(=O)c1ncn2c1CN(C)C(=O)c1cc(F)ccc1-2", "> 30 µM"],
  ["Oc1cc(O)c(Cl)cn1", "> 30 µM"],
  ["COC(=O)[C@H]1[C@H]2C[C@@H]3c4[nH]c5cc(OC)ccc5c4CCN3C[C@H]2C[C@@H](OC(=O)c2cc(OC)c(OC)c(OC)c2)[C@@H]1OC", "> 30 µM"]
]}

Provide measured AC50 value, entry: Cc1cc(C2CCCCC2)n(O)c(=O)c1 > 30 µM
